B1: ADAMTS4 (parent)
chain: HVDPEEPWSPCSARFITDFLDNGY

Variants of: B1
Assay: protein stability index of a GFP-peptide fusion (GPS, HEK-293T) (PSI 1-6); higher = more stable;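 also: lentivirally expressed fusions sorted by FACS into six bins by GFP to DsRed ratio, PSI derived from sequencing read proportions per bin multiplied by bin number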
Settings: c terminus: a fixed tail appended
This section presents variants with their documented protein stability index values.

variant-designation: N22T
protein stability index: 1.46

variant-designation: Y24D
protein stability index: 1.75

variant-designation: N22W
protein stability index: 1.3

variant-designation: V2M
protein stability index: 2.75

variant-designation: D21C
protein stability index: 1.95

variant-designation: T17V
protein stability index: 1.83

variant-designation: D21F
protein stability index: 2.12

variant-designation: P7S
protein stability index: 2.35

variant-designation: V2F
protein stability index: 2.14

variant-designation: W8R
protein stability index: 3.36

variant-designation: R14V
protein stability index: 1.56

variant-designation: T17M
protein stability index: 2.38

variant-designation: D18Y
protein stability index: 1.94

variant-designation: R14L
protein stability index: 2.13

variant-designation: R14K
protein stability index: 2.32

variant-designation: S12K
protein stability index: 1.55

variant-designation: Y24V
protein stability index: 1.73

variant-designation: A13Q
protein stability index: 1.97

variant-designation: P4G
protein stability index: 2.9

variant-designation: L20H
protein stability index: 1.92

variant-designation: D21W
protein stability index: 2.42

variant-designation: S9Y
protein stability index: 1.85
